# target-desc: IL-17A/A (Homo sapiens, UniProt Q16552)
# Sequence (Q16552 24-155): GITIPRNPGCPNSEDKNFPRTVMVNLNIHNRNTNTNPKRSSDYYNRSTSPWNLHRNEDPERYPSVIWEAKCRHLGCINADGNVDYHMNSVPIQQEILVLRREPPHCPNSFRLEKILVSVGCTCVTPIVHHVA
# protocol-text: HEK-Blue IL-17A/A inhibition assay (SEAP reporter)
# assay-conditions: HEK-Blue cells (HEK 293 expressing IL-17RA, IL-17RC, Act1); IL-17A/A stimulation; 20 hours; SEAP read at A630; 4-parameter fit
property-name: IC50

IC50 lookup needed for CC(C)n1nccc1C(=O)N[C@H](C(=O)Nc1ccc([C@H](C)C(=O)NC2CC2)cc1F)C(C1CC1)C1CC1 , thanks. > 1 µM

IC50 lookup needed for CC(C(=O)NCC(F)(F)F)c1cc(F)c(NC(=O)[C@@H](NC(=O)c2ccnn2C(C)C)C(C2CC2)C2CC2)cc1Nc1ccccn1 (single isomer, unassigned) [Compound 261] , thanks. > 1 µM

* * *

# target-desc: IL-17A/A (Homo sapiens, UniProt Q16552)
# Construct: purchased Genscript Z03228
# protocol-text: HEK-Blue IL-17A/A inhibition assay (SEAP reporter)
# Assay type: cell-based
# assay-conditions: HEK-Blue cells (HEK 293 expressing IL-17RA, IL-17RC, Act1); IL-17A/A stimulation; 20 hours; SEAP read at A630; 4-parameter fit
pIC50: −log10 of the molar value.
property-name: pIC50

# molecule, result
records = [
    ("Cc1cc(NC(=O)[C@@H](NC(=O)c2ccnn2C(C)C)C(C2CC2)C2CC2)c(F)cc1[C@@H](C)C(=O)NCC(F)(F)F (single isomer, unassigned)", "< 6.00"),
]

pIC50 lookup needed for CCOc1cc(NC(=O)[C@@H](NC(=O)c2ccnn2C(C)C)C(C2CC2)C2CC2)c(F)cc1C(C)C(=O)N(C)CC(F)(F)F (stereo partly drawn) , thanks. > 7.00

pIC50 lookup needed for C[C@H](C(=O)NCC(F)(F)F)c1ccc(NC(=O)[C@@H](NC(=O)c2ccnn2CCn2ccnc2)C(C2CC2)C2CC2)c(F)c1 , thanks. 6.00 to 7.00

pIC50 lookup needed for CCn1nccc1C(=O)N[C@H](C(=O)Nc1ccc(C(COC)C(=O)N(C)CC(F)(F)F)cc1F)C1CCCCCC1 (single isomer, unassigned) [Compound 103] , thanks. > 7.00

pIC50 lookup needed for CC(C(=O)N(C)CC(F)(F)F)c1cc(F)c(NC(=O)[C@@H](NC(=O)c2ccnn2C(C)C)C(C2CC2)C2CC2)cc1N(C)C (stereo partly drawn) [Compound 233] , thanks. < 6.00

pIC50 lookup needed for C[C@H](C(=O)NCC(F)(F)F)c1ccc(NC(=O)[C@@H](NC(=O)c2ccnn2C2CCCNC2)C(C2CC2)C2CC2)c(F)c1 (single isomer, unassigned) [Compound 96] , thanks. < 6.00

* * *

# target-desc: IL-17A/A (Homo sapiens)
# protocol-text: HEK-Blue IL-17A/A inhibition assay (SEAP reporter)
# assay-conditions: HEK-Blue cells (HEK 293 expressing IL-17RA, IL-17RC, Act1); IL-17A/A stimulation; 20 hours; SEAP read at A630; 4-parameter fit
pIC50: −log10 of the molar value.
// pIC50 lookup, one value per entry

Examples with their reported pIC50 follow.
# compound, pIC50
data = [
    ("CCn1nccc1C(=O)N[C@H](C(=O)Nc1c(F)cc(C(C)C(=O)NCC(F)(F)F)cc1F)C(C1CC1)C1CC1 (single isomer, unassigned) [Compound 170]", "< 6.00"),
    ("CC(C(=O)NCC(F)(F)F)c1cc(F)c(NC(=O)[C@@H](NC(=O)c2ccnn2C(C)C)C(C2CC2)C2CC2)cc1Nc1ccccn1 (stereo partly drawn) [Compound 254]", "< 6.00"),
]

Continue with the next compound.
pIC50 lookup needed for CC(C(=O)N1CC(C#N)CCC1C(F)(F)F)c1ccc(NC(=O)[C@@H](NC(=O)c2ccnn2C(C)C)C(C2CC2)C2CC2)c(F)c1 (stereo partly drawn) , thanks. 6.00 to 7.00
